Below is a list of entries, each paired with its recorded Population Tubulin-Different-Phenotype (%) value.
Tested on: U2OS
method_summary: Multiplex assay against U2OS
Type: toxicity, cell-based
run_conditions: human, 48 h, 1 µM, compound concentration 1 uM, replicate 2
Show the value, then the unit it is measured in.

Cc1c(-c2ccc(O)cc2)n(Cc2ccc(OCCN3CCCCCC3)cc2)c2ccc(O)cc12; 22%
Cc1[nH]c(/C=C2\C(=O)Nc3ccc(S(=O)(=O)N(C)c4cccc(Cl)c4)cc32)c(C)c1C(=O)N1CCN(C)CC1; 37%
CC(C)(O)CNc1ncc(-c2ccnc(Nc3ccnc(Cl)c3)n2)c(CC2CC2)n1; 22%
COc1cccc([C@@H](C)NCCCc2ccccc2Cl)c1.Cl [TECALCET HYDROCHLORIDE]; 18%
CN(C)CC#Cc1ccc(OCCCc2sc(N3CCc4cccc(C(=O)Nc5nc6ccccc6s5)c4C3)nc2C(=O)O)c(F)c1; 36%

Please look up its Population Tubulin-Different-Phenotype (%): COc1ncc(-c2ccc3nccc(-c4ccnnc4)c3c2)cc1NS(=O)(=O)c1ccc(F)cc1F
56%

Please look up its Population Tubulin-Different-Phenotype (%): CN(C)C(=O)/C(C#N)=C/c1ccc(-c2nc3cnc4[nH]ccc4c3n2C2CCCCC2)o1
43%

Please look up its Population Tubulin-Different-Phenotype (%): O=C1NCN(c2ccccc2)C12CCN(CCCOc1ccc(F)cc1)CC2 [SPIRAMIDE]
9%

Please look up its Population Tubulin-Different-Phenotype (%): CN1CCN(CCOc2cc(OC3CCOCC3)c3c(Nc4c(Cl)ccc5c4OCO5)ncnc3c2)CC1
14%

Please look up its Population Tubulin-Different-Phenotype (%): Cc1nc(-c2ccc(-c3ccc(C(=O)N4CCc5cc6c(cc54)C4(CCN(C)CC4)CO6)cc3)c(C)c2)no1
11%

Please look up its Population Tubulin-Different-Phenotype (%): COc1cc(-n2cnc3cc(-c4ccc(Cl)cc4)sc3c2=O)ccc1OCCN1CCCC1
19%

Please look up its Population Tubulin-Different-Phenotype (%): CN1CCC[C@@H]1CCO[C@](C)(c1ccccc1)c1ccc(Cl)cc1.O=C(O)/C=C/C(=O)O [CLEMASTINE FUMARATE]
15%

Please look up its Population Tubulin-Different-Phenotype (%): CN1CCN(c2ccc(OC(F)(F)F)c(Nc3ncc4c(n3)-c3c(c(C(N)=O)nn3CCO)CC4)c2)CC1
12%

Please look up its Population Tubulin-Different-Phenotype (%): CN1CCCC(n2nc(Cc3ccc(Cl)cc3)c3ccccc3c2=O)CC1.Cl (centres undefined) [AZELASTINE HYDROCHLORIDE]
47%
